Recorded values, source PubChem BioAssay (NCI).

# TGI per record follows
# System: OVCAR-8 ovarian
# PROTOCOL_DESCRIPTION: NCI tumour cell line growth inhibition, 48 h

CCOc1ccn(-c2ccc(F)cc2)c(=O)c1C(=O)Nc1ccc(Oc2ccnc(N)c2Cl)c(F)c1	> 100 µM
O=C(N/N=C/c1cc(Br)cc(Br)c1[O-])c1ccccc1O.O=C(N/N=C/c1cc(Br)cc(Br)c1[O-])c1ccccc1O.[Zn+2]	10.5 µM
Nc1nc(NCCCO)cc(=O)[nH]1	> 100 µM
COc1ccccc1/C=C/C1=NN(c2cccc(S(=O)(=O)O)c2)C2(C1)C(Cl)C(=O)N2c1nc2ccccc2s1 (stereo not given)	> 100 µM
CC(C)C1NC(=O)CC(c2ccccc2)N(N=O)C1c1ccccc1 (stereo not given)	> 100 µM
CCOC(=O)/C=C(/C(=O)OCC)n1ccc(=O)n(Cc2cnnn2COCCOC(C)=O)c1=O	30.6 µM
CCN(CC)CSc1nc2ccccc2[nH]1	> 100 µM
Clc1ccccc1-c1nnc2c(Cc3ccccc3)nc3ccccc3n12	> 100 µM
O=C1CCc2ccc(O)c(c2)Oc2ccc(cc2)C(Sc2ccccc2)CCO1 (stereo not given)	37.3 µM

// below: TGI requested for another compound
get_value(item= CCOC(=O)c1c(NC(=S)Nc2ccc(Cl)cc2)sc2c1CCN(C)C2 , readout=TGI) returns > 100 µM

====

# Tested on: IGROV1 ovarian
# PROTOCOL_DESCRIPTION: NCI tumour cell line growth inhibition, 48 h
MEASUREMENT_KIND: TGI

Worked examples follow.
NC1CCC(N(CC(=O)O)CC(=O)O)C(N(CC(=O)O)CC(=O)O)C1 (stereo not given)	> 100 µM
O=C1NN(Cc2ccccc2)C(=O)N2CCC[C@@H]12	> 100 µM
CCOc1ccccc1N=Nc1c(-c2ccccc2)nn(C(=O)CC(=O)Nc2cccc(C)c2)c1-c1ccccc1	> 100 µM

TGI on IGROV1 ovarian for CC(=O)c1cc(C(=O)c2ccc3c(c2)Sc2ccccc2N3)n2ccccc12 is > 33.2 µM

Result for CCNC(=O)Oc1ccc(/C(=C(/C)Cc2ccc(OC)cc2)c2ccc(OCCN(CC)CC)cc2)cc1 , tested on IGROV1 ovarian, TGI: 6.87 µM

====

# System: NCI-H522 lung
# PROTOCOL_DESCRIPTION: NCI tumour cell line growth inhibition, 48 h
MEASUREMENT_KIND: TGI (µM)
Lab book: enter the figure in µM, no units written.

For reference, reported TGI for CCN(CC)CCCC(C)N/C(=C1\C(=O)NC(=O)\C1=C(/NC(C)CCCN(CC)CC)c1cccc(OC)c1)c1cccc(OC)c1 (centres undefined) stands at 1.69

According to the records, this compound O=C(NCC1CCCO1)c1ccc(NC2=C(Cl)C(=O)N(Cc3ccccc3)C2=O)cc1 (centres undefined) displays TGI of 10.8

// TGI lookup, compound = CCCCCCCCCCCCOC1C(CNC(=O)C2OC3OC(C)(C)OC3C2NC(=O)CN2CCN(c3ccc(OC)cc3)CC2)OC2OC(C)(C)OC21 (centres undefined) , result: 17.4

// TGI lookup, compound = CC(=O)c1cc(C(=O)c2ccc3c(c2)Sc2ccccc2N3)n2ccccc12 , result: 0.00517

====

# Tested on: HOP-62 NSCLC
# PROTOCOL_DESCRIPTION: NCI tumour cell line growth inhibition, 48 h
GI50 values, listed per item

Known GI50 results, listed for orientation:
Nc1nc(/C=C\c2ccccc2)nc(N2CCN(c3ccccc3)CC2)n1	23.9 µM
Cc1cc2c(-c3nc4ccccn4c3N)c(O)c(O)cc2c(O)c1-c1c(C)cc2c(-c3nc4ccccn4c3N)c(O)c(O)cc2c1O	1.15 µM
Cn1c2c(c3c(Cl)nncc31)Cc1ccccc1-2	25.2 µM
CSc1nc2c(c(=O)n1C)CN(C1CCCCC1)C(=O)C(c1ccccc1)N2 (centres undefined)	> 100 µM
N#Cc1cnc(Nc2cc(NC[C@H]3CNCCO3)c(C(F)(F)F)cn2)cn1	6.54 µM

Entry COC(=O)c1oc2c(C(=O)/C=C/c3ccc(OC)cc3)c(OCCN(C)C)ccc2c1C , HOP-62 NSCLC data, GI50 value: 20.5 µM

GI50 value, target or system HOP-62 NSCLC, for Cc1cc(Nc2cc(N3CCN(C)CC3)nc(/C=C/c3ccccc3)n2)n[nH]1 : 0.768 µM

Record for C=CCC(N[C@H](CO)c1ccccc1)c1cn(Cc2ccccc2Cl)c(=O)n(Cc2ccccc2Cl)c1=O (some centres undefined) under target or system HOP-62 NSCLC: GI50 reported as 12 µM

Observed GI50 on HOP-62 NSCLC, entry CC(=O)C1=C(O)C=C2Oc3c(C(=O)/C=C/c4cc(Cl)cc(Cl)c4)c(O)c(C)c(O)c3[C@]2(C)C1=O , equals 0.48 µM

====

# Tested on: MDA-N
# PROTOCOL_DESCRIPTION: NCI tumour cell line growth inhibition, 48 h
Classification field: enter yes for TGI values not below 20 µM, no for values below it.

Answered examples (5):
COc1ccc(N=NC(=O)NC(CC(C)C)C(=O)NCC(=O)O)cc1 (stereo not given)	yes
NS(=O)(=O)c1cc(C(=O)O)c(O)c2ccccc12	yes
O=C1/C(=C/c2ccc(Cl)cc2)CNC/C1=C\c1ccc(Cl)cc1	no
CCOC(=O)/C=C(/C(=O)OCC)n1ccc(=O)n(Cc2cnnn2COCCOC(C)=O)c1=O	yes
[B-][P+](CC[P+]1([B-])[C@@H](C)[C@@H](O)[C@H](O)[C@@H]1C)(c1ccccc1)c1ccccc1OC (stereo not given in full)	yes

Enquiry: In plain terms: is recorded TGI at least 20 µM for CCCCCC/C=C\CCCCCCCCCC1=C(CN2CCN(C)CC2)C(=O)C=C(OC)C1=O ?
Return: yes

Enquiry: Does the reported TGI for C=CCOC(=O)C1=C(C)NC2=N[C@H](CCCCCCCCC)C[C@@H]3CCC1N23 (stereo not given in full) fall at or above the 20 µM mark?
Return: yes

Enquiry: Entry CCOP(=O)(OCC)C(NC(=O)C(C(F)(F)F)C(F)(F)F)c1ccccc1 (stereo not given) : is its TGI no less than 20 µM?
Return: yes

====

# Tested on: CCRF-CEM leukemia
# PROTOCOL_DESCRIPTION: NCI tumour cell line growth inhibition, 48 h; in the data active means GI50 below about 0.43 µM; inactive means the rest
Hello, when you answer, please use one of the following outcomes: active, inactive

The examples below pair each entry with its known result.
Cc1cc(Nc2nc(N[C@@H](C)c3ncc(F)cn3)ncc2Cl)n[nH]1	inactive
N/N=C(/Cc1nc2ccc(C(=O)c3ccccc3)cc2[nH]c1=O)C(=O)Nc1ccc([N+](=O)[O-])cc1[N+](=O)[O-]	inactive

Enquiry: Answer briefly: the call reported for CCNC(=O)Oc1ccc(/C(=C(/C)Cc2ccc(OC)cc2)c2ccc(OCCN(CC)CC)cc2)cc1 in this assay.
Return: inactive

Enquiry: Dear colleague, could you share the recorded outcome for CCOc1ccn(-c2ccc(F)cc2)c(=O)c1C(=O)Nc1ccc(Oc2ccnc(N)c2Cl)c(F)c1 when you have a moment?
Return: inactive

Enquiry: Hi, do you know how Cc1cc(-c2cc(O)ccc2Cl)cc2nnc(Nc3ccc(OCCN4CCCC4)cc3)nc12 came out in this test?
Return: active

Enquiry: For Nc1nc(/C=C\c2ccccc2)nc(N2CCN(c3ccccc3)CC2)n1 , what call appears in the results of this test?
Return: inactive

Enquiry: Dear all, I need the recorded test outcome for CN1CCN(C(=O)COc2ccc(/C=C3\CC4C5CC=C6CC(Cl)CCC6(C)C5CCC4(C)C3=O)cc2)CC1 (stereo not drawn) , thank you.
Return: inactive

Enquiry: What outcome does the record of this test show for CC(=O)N1N=C(c2ccc(Nc3nc(Nc4ccc(F)cc4)nc(Nc4ccc(F)cc4)n3)cc2)CC1c1ccc(N(C)C)cc1 (stereo not drawn) ?
Return: inactive

====

# Tested on: UACC-257 melanoma
# PROTOCOL_DESCRIPTION: NCI tumour cell line growth inhibition, 48 h
MEASUREMENT_KIND: GI50

CC(=O)N1N=C(c2ccc(Nc3nc(Nc4ccc(F)cc4)nc(Nc4ccc(F)cc4)n3)cc2)CC1c1ccc(N(C)C)cc1 (configuration not stated)	7.14 µM
CC(=O)[C@H]1CCC2[C@@H]3CC=C4C[C@@H]([O-])CC[C@]4(C)C3CC[C@@]21C.CC(=O)[C@H]1CCC2[C@@H]3CC=C4C[C@@H]([O-])CC[C@]4(C)C3CC[C@@]21C.CC(=O)[CH-]C(=O)c1ccccc1.CC(=O)[CH-]C(=O)c1ccccc1.Cl.[Ti+4] (some centres not stated)	16.2 µM
Nc1nc(/C=C\c2ccccc2)nc(N2CCN(c3ccccc3)CC2)n1	29.1 µM
CC(=O)c1cc(C(=O)c2ccc3c(c2)Sc2ccccc2N3)n2ccccc12	0.00332 µM

The compound CCOc1ccn(-c2ccc(F)cc2)c(=O)c1C(=O)Nc1ccc(Oc2ccnc(N)c2Cl)c(F)c1 showed GI50 equal to 5.99 µM

Just so you know, measured GI50 for CC(=O)[CH-]C(=O)c1ccccc1.CC(=O)[CH-]C(=O)c1ccccc1.O=S(=O)([O-])c1cc([O-])c2c([O-])cc(S(=O)(=O)[O-])cc2c1.[Na+].[Zr+4] came out at 87.2 µM

In plain terms, COC(=O)c1oc2c(C(=O)/C=C/c3ccc(OC)cc3)c(OCCN(C)C)ccc2c1C has a documented GI50 of 14.1 µM
